Molecular target: Thyroid hormone receptor beta (Homo sapiens)
Assay: qHTS assay for small molecule agonists of thyroid hormone receptor beta signaling (AID 588545)
Conditions: TR-UAS-bla GripTite HEK 293, beta-lactamase ratio, agonist mode, 18 h, percent of T3 response, DMSO as zero; series mostly up to 76.7 µM
Inconclusive results are not listed. The source made the active and inactive calls. Calls follow the shape of the full dose curve.

| MOLECULE | outcome |
| --- | --- |
| CCOCN(C(=O)CCl)c1c(C)cccc1CC | inactive |
| ClC1=C(Cl)C2(Cl)C3C4CC(C5OC45)C3C1(Cl)C2(Cl)Cl (configuration not stated) | inactive |
| BrCCBr | inactive |
| Clc1nc(Cl)nc(Cl)n1 | inactive |
| CC(C)N1C(=O)c2ccccc2NS1(=O)=O | inactive |
| CC1(C)C(C=C(Cl)Cl)C1C(=O)OCc1cccc(Oc2ccccc2)c1 (configuration not stated) | inactive |
| CCCCOC(=O)c1ccccc1C(=O)OCCCC | inactive |

src = PubChem BioAssay (NCATS)
